Reported abundance fitness values for a set of variants
B1: Poly(rC)-binding protein 1, residues 278 to 350; numbered along this chain, Q15365 (parent)
chain: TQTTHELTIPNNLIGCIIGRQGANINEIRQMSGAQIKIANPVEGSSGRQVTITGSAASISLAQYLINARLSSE

# Variants of: B1
# assay_details: abundance fitness (aPCA) (normalised: wild type 0, dead -1); higher = more abundant; growth selection in yeast, the domain comes from the species named
# condition_notes: Homo sapiens
observation_type: abundance fitness

A39N 0.076
C16Y -0.209
N12E -0.202
Q63V -0.019
R69L -0.328
S45K 0.094
V42N -0.272
S46W -0.125
V42W -0.525
S55I -0.882
Q2D 0.052
N40R 0.016
E27F -0.564
S32R -0.85
P10T -0.549
N26S -0.003
Y64F -0.266
L65A 0.076
I25S -0.674
P10D -0.363
G33K -0.362
K37I 0.124
G44C -0.19
E73L -0.004
Q35T 0.017
L13F -0.107
I17G -0.585
T51C 0.024
N40T -0.16
Q30S 0.023
G22P -0.583
E6P -0.965
V50T -0.901
L7N -0.803
Y64G 0.212
I28Y -0.731
P10H -0.442
N12C -0.267
L61D 0.02
T1C -0.218
G44I -0.732
C16W -0.092
A56Q 0.076
A23C 0.018
G54L -0.877
S58Q 0.08
